# system: panel of 442 kinases (Homo sapiens, UniProt Q9HAZ1)
# Construct: purchased KINOMEscan
# Sequence (Q9HAZ1 whole entry): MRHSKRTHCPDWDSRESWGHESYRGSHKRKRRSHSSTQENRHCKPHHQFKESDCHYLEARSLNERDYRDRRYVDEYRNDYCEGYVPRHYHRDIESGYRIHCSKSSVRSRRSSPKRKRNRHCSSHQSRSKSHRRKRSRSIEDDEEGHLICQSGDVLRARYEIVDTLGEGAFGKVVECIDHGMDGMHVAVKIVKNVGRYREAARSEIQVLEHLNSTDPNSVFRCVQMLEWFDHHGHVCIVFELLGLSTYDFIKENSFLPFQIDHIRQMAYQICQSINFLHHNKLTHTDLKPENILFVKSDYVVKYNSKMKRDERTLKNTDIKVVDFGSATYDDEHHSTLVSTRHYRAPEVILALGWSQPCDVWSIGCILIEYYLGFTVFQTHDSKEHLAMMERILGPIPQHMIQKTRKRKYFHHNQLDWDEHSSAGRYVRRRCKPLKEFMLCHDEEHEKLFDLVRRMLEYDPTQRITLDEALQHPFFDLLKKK
# Assay type: binding
# measurement-setup: Compound Concentration 10 µM
readout-kind: KINOMEscan: CLK4

Query block: Fetch value of KINOMEscan: CLK4 on panel of 442 kinases (Homo sapiens, UniProt Q9HAZ1) for `COc1cc(C(=O)N2CCC(N3CCN(C)CC3)CC2)ccc1Nc1ncc2c(n1)N(C1CCCC1)c1ccccc1C(=O)N2C` .
Result block: 100

Query block: Fetch value of KINOMEscan: CLK4 on panel of 442 kinases (Homo sapiens, UniProt Q9HAZ1) for `COc1cc(C(=O)N2CCC(N3CCN(C)CC3)CC2)ccc1Nc1ncc2c(n1)N1CCc3cccc(c31)C(=O)N2C` .
Result block: 11

Query block: Fetch value of KINOMEscan: CLK4 on panel of 442 kinases (Homo sapiens, UniProt Q9HAZ1) for `COc1cc(C(=O)N2CCC(N3CCN(C)CC3)CC2)ccc1Nc1ncc2c(n1)N(C)c1ccccc1C(=O)N2C` .
Result block: 54

Query block: Fetch value of KINOMEscan: CLK4 on panel of 442 kinases (Homo sapiens, UniProt Q9HAZ1) for `CCOc1cc(C(=O)N2CCC(N3CCN(C)CC3)CC2)ccc1Nc1ncc2c(n1)N(C1CCCC1)c1ccccc1C(=O)N2C` .
Result block: 100
